# Relative Inhibition of IL-4 induced TARC IC50 listing for each entry below
assay-target: T1, hIL-4Rα on cells (human, UniProt P24394 26-825)
T1 sequence: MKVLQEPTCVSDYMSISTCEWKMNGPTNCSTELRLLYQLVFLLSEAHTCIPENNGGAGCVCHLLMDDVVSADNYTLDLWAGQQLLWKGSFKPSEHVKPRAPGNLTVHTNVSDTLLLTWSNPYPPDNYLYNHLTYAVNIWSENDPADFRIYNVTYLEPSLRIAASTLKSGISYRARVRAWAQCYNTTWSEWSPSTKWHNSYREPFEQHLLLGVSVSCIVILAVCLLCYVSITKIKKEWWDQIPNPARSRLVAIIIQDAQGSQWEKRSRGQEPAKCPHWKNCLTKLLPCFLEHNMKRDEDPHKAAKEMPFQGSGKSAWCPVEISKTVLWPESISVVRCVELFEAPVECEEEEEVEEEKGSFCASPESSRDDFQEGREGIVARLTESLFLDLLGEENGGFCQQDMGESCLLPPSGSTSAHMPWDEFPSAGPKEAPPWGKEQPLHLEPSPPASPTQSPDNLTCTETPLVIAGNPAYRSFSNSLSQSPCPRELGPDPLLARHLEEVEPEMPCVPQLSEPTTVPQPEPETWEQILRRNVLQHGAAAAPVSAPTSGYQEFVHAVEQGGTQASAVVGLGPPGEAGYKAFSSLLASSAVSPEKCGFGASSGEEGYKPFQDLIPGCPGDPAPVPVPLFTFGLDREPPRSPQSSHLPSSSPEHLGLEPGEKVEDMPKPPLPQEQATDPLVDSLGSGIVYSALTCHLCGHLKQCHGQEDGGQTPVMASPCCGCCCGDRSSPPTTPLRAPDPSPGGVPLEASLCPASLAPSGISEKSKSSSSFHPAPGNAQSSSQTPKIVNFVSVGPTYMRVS
assay-name: cell-based or functional assay

Endpoint output: Relative Inhibition of IL-4 induced TARC IC50 of Construct 33 (mAb450) (antibody, IgG4, V domains shown, VH/VL only) VH: EVQLVESGGGLEQPGGSLRLSCAGSGFTFRDFAMTWVRQAPGKGLEWVSSISGSGGNIYYADSVKGRFTISRDNSKNTLYLQMNSLRAEDTAVYYCAKDRVSITIRPRYYGLDVWGQGTTVTVSS VL: DIVMTQSPLSLPVTPGEPASISCTASQSLLYSIGYNYVDWYLQKSGQSPQLLIYLGSKRASGVPDRFSGSGSGTDFTLKISRVEAEDVGFYYCMQALGSPYTFGQGTKLEIK . Value?
3.2 relative to dupilumab

Entry Construct 10 (mAb419) (antibody, IgG4, V domains shown, VH/VL only) VH: EVQLVESGGGLEQPGGSLRLSCAGSGFTFRDFAMTWVRQAPGKGLEWVSSISGDGSNTYYADSVKGRFTISRDNSKNTLYLQMNSLRAEDTAVYYCAKDRLSKTIRPRYYGLDVWGQGTTVTVSS VL: DIVMTQSPLSLPVTPGEPASISCRSSQSLLYSIGYNYVDWYLQKSGQSPQLLIYLGNKRASGVPDRFSGSGSGTDFTLKISRVEAEDVGFYYCMQALGSPYTFGQGTKLEIK has what Relative Inhibition of IL-4 induced TARC IC50?
0.556 relative to dupilumab

Please give the measured Relative Inhibition of IL-4 induced TARC IC50 for this binder: Construct 11 (mAb420) (antibody, IgG4, V domains shown, VH/VL only) VH: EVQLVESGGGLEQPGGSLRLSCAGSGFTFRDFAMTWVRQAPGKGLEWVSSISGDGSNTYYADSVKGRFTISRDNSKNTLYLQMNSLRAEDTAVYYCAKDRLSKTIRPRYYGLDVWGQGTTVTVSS VL: DIVMTQSPLSLPVTPGEPASISCRSSQSVLYSIGYNYVDWYLQKSGQSPQLLIYLGNKRASGVPDRFSGSGSGTDFTLKISRVEAEDVGFYYCMQSLQTPYTFGQGTKLEIK
0.609 relative to dupilumab

Pending binder:
May I ask what Relative Inhibition of IL-4 induced TARC IC50 has been recorded for Construct 26 (mAb434) (antibody, IgG4, V domains shown, VH/VL only) VH: EVQLVESGGGLEQPGGSLRLSCAGSGFTFRDFAMTWVRQAPGKGLEWVSSISGGGGSTYYADSVKGRFTISRDNSKNTLYLQMNSLRAEDTAVYYCAKDRLSIAVRPRYYGLDVWGQGTTVTVSS VL: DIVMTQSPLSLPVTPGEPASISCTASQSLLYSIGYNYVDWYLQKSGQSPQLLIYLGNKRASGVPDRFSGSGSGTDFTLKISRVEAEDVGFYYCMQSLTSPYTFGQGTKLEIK ?
0.763 relative to dupilumab
